Known stoichiometry N of a selection of proteins
Target: the molecule itself
Experiment: SEC; analytical size-exclusion chromatography of the purified RutR proteins; elution as dimer; column and buffer not given
Lab note: record the figure alone, no unit after it.

In: Please list stoichiometry N recorded for the protein RutR AcK21 (site-specifically K21-acetylated RutR) (natural protein, E. coli, acetyl-lysine at 21, RutR of Escherichia coli; rutR gene as in m1 with an amber stop codon at K21 for acetyl-L-lysine; Same rutR construct as m1 apart from the amber codon; constructs are in Supplementary Data 4; source: E. coli BL21 (DE3), genetic code expansion (acetyl-L-lysine at an amber codon), purified) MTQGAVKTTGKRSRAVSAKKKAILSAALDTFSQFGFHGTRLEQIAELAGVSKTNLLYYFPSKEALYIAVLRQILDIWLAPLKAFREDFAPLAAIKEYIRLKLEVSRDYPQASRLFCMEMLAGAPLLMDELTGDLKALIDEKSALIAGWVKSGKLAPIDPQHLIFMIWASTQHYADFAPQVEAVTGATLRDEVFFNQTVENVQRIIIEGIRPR
Out: 2

Here's the next entry for you.
In: Please list stoichiometry N recorded for the protein RutR AcK7 (site-specifically K7-acetylated RutR) (natural protein, E. coli, acetyl-lysine at 7, RutR of Escherichia coli; rutR gene as in m1 with an amber stop codon at K7 for acetyl-L-lysine; Same rutR construct as m1 apart from the amber codon; constructs are in Supplementary Data 4; source: E. coli BL21 (DE3), genetic code expansion (acetyl-L-lysine at an amber codon), purified) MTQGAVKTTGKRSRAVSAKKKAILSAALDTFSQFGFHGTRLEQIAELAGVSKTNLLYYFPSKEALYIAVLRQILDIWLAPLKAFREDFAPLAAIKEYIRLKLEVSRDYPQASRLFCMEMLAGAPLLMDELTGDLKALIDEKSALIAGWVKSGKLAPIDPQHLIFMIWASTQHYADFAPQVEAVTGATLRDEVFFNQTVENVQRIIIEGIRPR
Out: 2
